The following molecules are listed with their measured pKi values.
target: PIK3CD (Human); test: Enzyme Assay
To interpret pKi, take it as minus log10 of a concentration measured in moles per litre.

[[record]]
structure_string = "CNC(=O)c1cccc2nc([C@@H](C)Nc3ncnc(N)c3C#N)n(-c3cncc(F)c3)c12.CNC(=O)c1cccc2nc([C@H](C)Nc3ncnc(N)c3C#N)n(-c3cncc(F)c3)c12"
result_type = "pKi"
obs_value = 7.05

[[record]]
structure_string = "C[C@@H](Nc1ncnc(N)c1C#N)c1nc2cccc(Br)c2n1-c1cncc(F)c1.C[C@H](Nc1ncnc(N)c1C#N)c1nc2cccc(Br)c2n1-c1cncc(F)c1"
result_type = "pKi"
obs_value = 7.16


Now examine the next entry.
Consider `C[C@@H](Nc1ncnc(N)c1C#N)c1nc2ccc(F)cc2n1-c1cncc(NS(C)(=O)=O)c1.C[C@H](Nc1ncnc(N)c1C#N)c1nc2ccc(F)cc2n1-c1cncc(NS(C)(=O)=O)c1` . Its measured pKi is 7.84

====

The following compounds are listed with their measured pKi values.
target: PIK3CD (Human) (UniProt O00329)
Sequence (O00329 whole entry, looked up): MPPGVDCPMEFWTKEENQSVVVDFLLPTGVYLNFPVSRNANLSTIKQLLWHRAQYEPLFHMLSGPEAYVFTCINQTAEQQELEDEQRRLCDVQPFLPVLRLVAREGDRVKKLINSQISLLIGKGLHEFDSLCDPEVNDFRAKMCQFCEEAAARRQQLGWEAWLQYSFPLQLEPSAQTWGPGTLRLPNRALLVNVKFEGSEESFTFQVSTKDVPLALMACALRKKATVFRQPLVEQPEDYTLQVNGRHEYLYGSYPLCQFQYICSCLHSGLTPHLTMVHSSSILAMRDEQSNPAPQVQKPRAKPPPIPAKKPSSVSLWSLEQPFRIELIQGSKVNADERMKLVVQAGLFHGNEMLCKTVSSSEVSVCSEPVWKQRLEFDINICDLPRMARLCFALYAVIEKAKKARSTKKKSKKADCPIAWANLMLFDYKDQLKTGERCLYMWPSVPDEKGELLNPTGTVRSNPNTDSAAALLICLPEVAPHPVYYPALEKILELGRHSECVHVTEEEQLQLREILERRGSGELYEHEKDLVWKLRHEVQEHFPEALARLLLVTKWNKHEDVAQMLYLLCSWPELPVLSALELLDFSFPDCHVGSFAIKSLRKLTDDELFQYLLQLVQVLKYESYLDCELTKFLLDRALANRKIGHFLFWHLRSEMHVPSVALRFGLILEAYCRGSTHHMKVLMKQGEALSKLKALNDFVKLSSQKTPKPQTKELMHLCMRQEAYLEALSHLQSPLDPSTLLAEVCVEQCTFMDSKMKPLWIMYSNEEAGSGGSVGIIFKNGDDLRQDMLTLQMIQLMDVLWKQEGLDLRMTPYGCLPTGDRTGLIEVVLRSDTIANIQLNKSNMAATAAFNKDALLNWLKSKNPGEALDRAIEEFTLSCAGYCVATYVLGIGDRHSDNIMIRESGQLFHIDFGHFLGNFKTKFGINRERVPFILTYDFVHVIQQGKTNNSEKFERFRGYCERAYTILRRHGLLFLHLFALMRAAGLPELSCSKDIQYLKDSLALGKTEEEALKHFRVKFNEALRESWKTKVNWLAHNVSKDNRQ
To interpret pKi, take it as minus log10 of a concentration measured in moles per litre.

Example compounds with recorded pKi:
[[record]]
structure_string = "C[C@@H](Nc1ncnc(N)c1C#N)c1nc2c(F)cccc2n1-c1cncc(F)c1.C[C@H](Nc1ncnc(N)c1C#N)c1nc2c(F)cccc2n1-c1cncc(F)c1"
obs_value = 7.06

[[record]]
structure_string = "C[C@@H](Nc1ncnc(N)c1C#N)c1nc2c(F)cc(F)cc2n1-c1cccnc1.C[C@H](Nc1ncnc(N)c1C#N)c1nc2c(F)cc(F)cc2n1-c1cccnc1"
obs_value = 7.65

[[record]]
structure_string = "C[C@@H](Nc1ncnc(N)c1C#N)c1nc2ncccc2n1-c1ccccn1.C[C@H](Nc1ncnc(N)c1C#N)c1nc2ncccc2n1-c1ccccn1"
obs_value = 5.54


Now examine the next entry.
Sample `C[C@@H](Nc1ncnc(N)c1C#N)c1nc2ccc(F)cc2n1-c1ccc(-c2cccnc2)nc1` , system: PIK3CD (Human) (UniProt O00329). Its pKi is 5.92

Cited source for all entries: the Kinase Knowledgebase extract (Sharma et al. 2016)
